system: proteasome CT-L activity; assay: Proteasome CT-L activity in blood lysates of mice one hour after oral dosing (LLVY-AMC cleavage); type: in vivo; conditions: 40 mg/kg PO, one hour post-dosing, vs vehicle-dosed cohort
experimentalEndpoint: proteasome CT-L inhibition

1) COCC[C@H](NC(=O)c1cc(C(C)C)on1)C(=O)N[C@@H](Cc1ccccc1)C(=O)N[C@@H](CC(C)C)C(=O)[C@@]1(C)CO1 > 70%
2) CC(C)C[C@H](NC(=O)[C@H](Cc1ccccc1)NC(=O)[C@@H](NC(=O)c1cc(CN2CCOCC2)on1)C(C)C)C(=O)[C@@]1(C)CO1 > 80%
3) CC(C)C[C@H](NC(=O)c1cc(CN2CCOCC2)on1)C(=O)N[C@@H](Cc1ccccc1)C(=O)N[C@@H](CC(C)C)C(=O)[C@@]1(C)CO1 > 80%
4) COC[C@H](NC(=O)c1cc(C)on1)C(=O)N[C@@H](Cc1ccccc1)C(=O)N[C@@H](CC(C)C)C(=O)[C@@]1(C)CO1 > 90%

====

tested on: proteasome CT-L activity; assay: Proteasome CT-L activity in blood lysates of mice one hour after oral dosing (LLVY-AMC cleavage); type: in vivo; conditions: 20 mg/kg PO, one hour post-dosing, vs vehicle-dosed cohort
experimentalEndpoint: proteasome CT-L inhibition

1) COC[C@H](NC(=O)c1cc(C)on1)C(=O)N[C@@H](Cc1cscn1)C(=O)N[C@@H](CC(C)C)C(=O)[C@@]1(C)CO1 > 75%
2) COC[C@H](NC(=O)c1ccon1)C(=O)N[C@@H](COC)C(=O)N[C@@H](CC(C)C)C(=O)[C@@]1(C)CO1 > 80%
3) Cc1cc(C(=O)N[C@@H](Cc2ccccn2)C(=O)N[C@@H](Cc2ccccc2)C(=O)N[C@@H](CC(C)C)C(=O)[C@@]2(C)CO2)no1 > 80%
4) COC[C@H](NC(=O)c1cc(C)on1)C(=O)N[C@H](C(=O)N[C@@H](CC(C)C)C(=O)[C@@]1(C)CO1)C(C)C > 70%
5) COC[C@H](NC(=O)c1cc(C)no1)C(=O)N[C@@H](COC)C(=O)N[C@@H](CC(C)C)C(=O)[C@@]1(C)CO1 > 50%
